tested on: HCT116-MTAP wild-type (+/+)-cell strain; test: Tumor cell proliferation inhibition assay (CellTiter-Glo), HCT116-MTAP wild-type (+/+); type: cell-based; conditions: Homo sapiens, 120 h, HCT116-MTAP wild-type (+/+) cells, 5-day treatment, IC50 score, read-out: Tumor cell 5-day relative growth inhibition (HCT116-MTAP+/+) (nM), score
measured metric: IC50

Req: So what does the record say about IC50 for O=c1c2nn(C3CC3)cc2c2ccc(C(F)(F)F)nc2n1-c1cccc2[nH]ncc12 [Compound B250] ?
Resp: 500 to 2000 nM

Continuing:
Req: Consider the molecule Cn1cc2c(n1)c(=O)n(-c1cccnc1C1CC1)c1nc(C(F)(F)F)ccc21 (single isomer, unassigned) [Compound B213] and give its measured IC50.
Resp: 500 to 2000 nM

Req: # query: IC50 of entry CN1CCN(c2ccc(Cn3cc4c(n3)c(=O)n(-c3cccc5[nH]ncc35)c3cc(Cl)c(F)cc43)cn2)CC1 [Compound B268]
Resp: ≥ 2000 nM

Req: Looking for the measured IC50 of O=c1c2nn(C(F)F)cc2c2cc(F)c(C3CC3)nc2n1-c1cccnc1C1CC1 [Compound B361] , can you help?
Resp: ≥ 2000 nM

Req: May I ask what IC50 has been recorded for Cn1cc2c(n1)c(=O)n(-c1cccc3[nH]ncc13)c1cc(Cl)c(F)cc21 [Compound B257] ?
Resp: 500 to 2000 nM

Req: Any idea what IC50 was measured for Cn1cc2c(n1)c(=O)n(-c1cncc(O)c1)c1nc(C(F)(F)F)ccc21 [Compound B221] ?
Resp: ≥ 2000 nM

Req: Fill blank: measured IC50 of the molecule O=c1c2nn(C(F)F)cc2c2cc(F)c(Cl)cc2n1-c1cccnc1C1CC1 [Compound B337] is ____.
Resp: ≥ 2000 nM

Req: Find the recorded IC50 belonging to Cn1cc2c(n1)c(=O)n(-c1cccc3[nH]ncc13)c1nc(C(F)(F)F)ccc21 [Compound B181] and report it.
Resp: 500 to 2000 nM

---

test system: SDMA in HCT116-MTAP-knockout cell line; experiment: Cell symmetric dimethylarginine (SDMA) test, In-cell Western, HCT116-MTAP-knockout; type: cell-based; conditions: Homo sapiens, 96 h, IC50 score class, read-out: Cell 96 h SDMA Inhibition (HCT116-MTAP−/−) (score)
pIC50: −log10 of the molar value.
Listed here are molecules together with their documented pIC50.

Check out these entries, answers already filled in.
Req: Which pIC50 reading was recorded for the molecule Cn1cc2c(n1)c(=O)n(-c1cccc3[nH]ncc13)c1nc(C(F)(F)F)ccc21 ?
Resp: > 6.70

Req: Which value of pIC50 has been reported for Cn1cc2c(n1)c(=O)n(-c1ccc3cn[nH]c3c1)c1cc(Cl)ccc21 in the records?
Resp: 6.00 to 6.70

Req: Value lookup for pIC50; key = Cn1cc2c(n1)c(=O)n(-c1cccnc1Cl)c1nc(C(F)(F)F)ccc21
Resp: > 6.70

Further cases:
Req: Give the measured pIC50 of O=c1c2n[nH]cc2c2cc(F)c(Cl)cc2n1-c1cccc2[nH]ncc12 .
Resp: > 6.70

Req: I'd like to know its pIC50. The molecule in question is CCn1nc2c(=O)n(-c3cccnc3)c3cc(Cl)ccc3c2c1Cl
Resp: 6.00 to 6.70

---

Test system: SDMA in human colon cancer cell line HCT116
Assay: Cell symmetric dimethylarginine (SDMA) test, In-cell Western, HCT116 (MTAP wild-type)
Type: cell-based
Conditions: Homo sapiens, HCT-116, 96 h, read-out: Cell 96 h SDMA inhibition (HCT116-MTAP+/+)
Text: MAT2A catalyzes the reaction of L-methionine and ATP to generate SAM, inorganic phosphonic acid, and inorganic diphosphonic acid. SAM is an important methyl donor, and is a substrate of arginine methyltransferase 5 (PRMT5). PRMT5 catalyzes SDMA modification of multiple proteins within a cell. The intracellular SDMA modification level was detected by ICW (In-cell Western), and the inhibition of the test compound on the enzymatic activity of intracellular MAT2A was indirectly reflected. […]
pIC50: −log10 of the molar value.
measured metric: pIC50

P: COCCn1cc2c(n1)c(=O)n(-c1cccnc1)c1cc(Cl)ccc21
Q: O=c1c2nn(C(F)F)cc2c2ccc(Cl)cc2n1-c1cccnc1
Req: Which is greater in pIC50, the first item P or the second item Q ? // output: label of the selected item
Resp: Q

I: Cn1cc2c(n1)c(=O)n(-c1cccc(C#N)c1)c1nc(C(F)(F)F)ccc21
II: Cn1cc2c(n1)c(=O)n(-c1cccnc1)c1cc(Cl)c(F)cc21
Req: Given the listed records, identify the one among I and II with higher pIC50. Mark your selection by writing its label.
Resp: I

a: CCn1nc2c(=O)n(-c3cccnc3)c3cc(Cl)ccc3c2c1F
b: Cn1cc2c(n1)c(=O)n(-c1ccc3[nH]cnc3c1)c1cc(Cl)ccc21
Req: // which entry has the larger pIC50 value, a or b ? # respond with the chosen item's label
Resp: b

1: Cn1cc2c(n1)c(=O)n(-c1cccc(O)c1)c1cc(Cl)ccc21
2: O=c1c2nn(C(F)F)cc2c2ccc(C(F)(F)F)nc2n1-c1cccc2[nH]ncc12
Req: Given the listed items, does 1 or 2 have the lesser reported pIC50? Could you answer with the label of the item you picked?
Resp: 1

A: Cn1cc2c(n1)c(=O)n(-c1cccnc1C1CC1)c1nc(C(F)(F)F)ccc21 [Compound B183]
B: Cc1c2c(nn1C)c(=O)n(-c1cccnc1)c1cc(Cl)ccc21
C: Cc1ncccc1-n1c(=O)c2[nH]ncc2c2ccc(Cl)cc21
Req: Please rank these compounds by pIC50 in descending order. Present the labels in the sequence the task asks for.
Resp: C, A, B
(C: 7.27, A: 6.89, B: 6.20)

A: CCn1cc2c(n1)c(=O)n(-c1cccnc1)c1nc(C(F)(F)F)ccc21
B: Cc1ncccc1-n1c(=O)c2nn(C)cc2c2ccc(Cl)cc21
Req: Thinking about recorded pIC50 values, which is higher, A or B ? // caller expects the label of the chosen entry
Resp: B

1: Cn1cc2c(n1)c(=O)n(-c1cccnc1C#N)c1nc(C(F)(F)F)ccc21
2: O=c1c2nn(CCO)cc2c2ccc(Cl)cc2n1-c1cccnc1
3: Cn1cc2c(n1)c(=O)n(-c1ccnn1C)c1cc(Cl)ccc21
4: O=c1c2nn(C(F)F)cc2c2ccc(C(F)(F)F)nc2n1-c1cccnc1
Req: # rank_down: sort by pIC50, max first Put the labels in the order asked and list them.
Resp: 1, 3, 4, 2

1: CCn1cc2c(n1)c(=O)n(-c1c(C)ccnc1C)c1cc(Cl)ccc21
2: CCn1nc2c(=O)n(-c3cccnc3)c3cc(Cl)ccc3c2c1Cl
Req: Between 1 and 2 , which one has the lower reported pIC50 value? Provide the label of your selected option as the answer.
Resp: 2

A: CCn1cc2c(n1)c(=O)n(-c1cccc(F)c1)c1cc(Cl)ccc21
B: O=c1c2nn(C3CC3)cc2c2ccc(C(F)(F)F)nc2n1-c1cccnc1
Req: Field: lower recorded pIC50 (choose A or B ) Identify your selection by its label.
Resp: A

---

biological target: CYP2C19 (Homo sapiens, UniProt P33261)
Sequence (P33261 whole entry): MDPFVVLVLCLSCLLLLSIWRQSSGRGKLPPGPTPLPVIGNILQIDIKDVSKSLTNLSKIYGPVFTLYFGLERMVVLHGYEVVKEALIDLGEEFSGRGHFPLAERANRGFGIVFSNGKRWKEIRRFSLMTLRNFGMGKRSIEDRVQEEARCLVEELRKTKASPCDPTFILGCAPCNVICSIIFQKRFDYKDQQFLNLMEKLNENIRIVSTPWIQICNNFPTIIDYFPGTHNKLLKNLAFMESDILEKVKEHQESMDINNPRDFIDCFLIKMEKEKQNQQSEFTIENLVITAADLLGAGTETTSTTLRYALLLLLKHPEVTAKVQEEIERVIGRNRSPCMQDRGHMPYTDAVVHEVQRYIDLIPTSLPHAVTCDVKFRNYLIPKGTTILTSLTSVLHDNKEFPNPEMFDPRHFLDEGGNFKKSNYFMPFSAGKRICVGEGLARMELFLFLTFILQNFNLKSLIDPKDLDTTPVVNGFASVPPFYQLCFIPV
measured metric: IC50

Req: Reported IC50 for CYP2C19 (Homo sapiens, UniProt P33261), given Cn1cc2c(n1)c(=O)n(-c1cccc3[nH]ncc13)c1cc(Cl)ccc21 ?
Resp: > 10 µM

---

Items are presented alongside their recorded pIC50.
system: SDMA in HCT116-MTAP-knockout cell line; test: Cell symmetric dimethylarginine (SDMA) test, In-cell Western, HCT116-MTAP-knockout; format: cell-based; conditions: Homo sapiens, 96 h, IC50 score class, read-out: Cell 96 h SDMA Inhibition (HCT116-MTAP−/−) (score)
pIC50: −log10 of the molar value.

Req: Name the recorded pIC50 for Cc1ncccc1-n1c(=O)c2nn(CC3CC3)cc2c2ccc(C(F)(F)F)nc21 [Compound B191] .
Resp: > 6.70

Next:
Req: Reported pIC50, compound Cn1cc2c(n1)c(=O)n(-c1cccc3ccccc13)c1cc(Cl)c(F)cc21 [Compound B370] : ____
Resp: 6.00 to 6.70

Req: Return reported pIC50; argument: O=c1c2nn(C(F)F)cc2c2ccc(Cl)cc2n1-c1cccnc1 [Compound B55]
Resp: > 6.70

Req: Would you kindly share the measured pIC50 for Cc1ncccc1-n1c(=O)c2nn(C)cc2c2ccc(C(F)(F)F)nc21 (single isomer, unassigned) [Compound B180] ?
Resp: > 6.70

---

Listing of entries alongside the reported pIC50.
system: SDMA in HCT116-MTAP-knockout cell line; experiment: Cell symmetric dimethylarginine (SDMA) test, In-cell Western, HCT116-MTAP-knockout; format: cell-based; details: Homo sapiens, 96 h, IC50 score class, read-out: Cell 96 h SDMA Inhibition (HCT116-MTAP−/−) (score)
pIC50: −log10 of the molar value.

Solved cases below.
Req: Could you tell me which pIC50 is on file for Cn1cc2c(n1)c(=O)n(-c1cccc(C#N)c1)c1nc(C(F)(F)F)ccc21 [Compound B192] ?
Resp: 6.00 to 6.70

Req: Entry under review: O=c1c2n[nH]cc2c2ccc(C(F)(F)F)nc2n1-c1cccnc1 [Compound B178] . Reported pIC50?
Resp: > 6.70

Req: Fill blank: measured pIC50 of the compound Cn1cnc2c(=O)n(-c3cccnc3C(F)(F)F)c3cc(Cl)c(F)cc3c21 [Compound B351] is ____.
Resp: > 6.70

Req: Returns the measured pIC50 for the input compound. Input: CN1CCN(c2ccc(Cn3cc4c(n3)c(=O)n(-c3cccc5[nH]ncc35)c3cc(Cl)c(F)cc43)cn2)CC1 [Compound B268]
Resp: 5.52 to 6.00

In the following, a different compound is considered.
Req: Need pIC50, item Cn1cc2c(n1)c(=O)n(-c1cncc(F)c1)c1nc(C(F)(F)F)ccc21 [Compound B202]
Resp: 5.52 to 6.00

Origin of the recorded values: patent US20240391923A1
